system: SK-MEL-5; assay: NCI tumour cell line growth inhibition, 48 h
The source made the active and inactive calls. No stated cut-off is given here; in the data, active = GI50 up to about 1.1 µM and inactive = higher.
GI50 reference

Consider the following illustrative entries.
Compound	GI50
CCOC(=O)/C=C/C(=O)O/C=C/[N+](=O)[O-]	> 100 µM (inactive)
CC1(O)CC2(O)C=CC3=C(C(=O)c4cccc(O)c4C3=O)C2(O)C(=O)C1O (centres undefined)	3.3 µM (inactive)
CCCCCCCCCCCCCP(=O)(O)NCC(N)=O	61.1 µM (inactive)
COc1cc2nc(-c3ccc4ccccc4c3)nc(O)c2cc1OC	> 100 µM (inactive)
CN(C)c1n2c3cc([N+](=O)[O-])ccc3[n+]3c(N(C)C)n4ccccc4c3c2c2cccc[n+]12.[O-][Cl+3]([O-])([O-])[O-].[O-][Cl+3]([O-])([O-])[O-]	> 100 µM (inactive)
CCOC(=O)CC(=O)Nc1cccc2sc3ncccc3c(=O)c12	5.37 µM (inactive)
COc1cccc(NC(=O)/C(CC(=O)CC(c2ccccc2)c2c(O)c3ccccc3oc2=O)=N\NC(C)(C)C)c1OC (centres undefined)	> 100 µM (inactive)
O=C(NNCC(F)(F)F)c1ccncc1	> 100 µM (inactive)

# query: GI50 of entry C/C(=C\CNc1ncnc2c1ncn2CCC(=O)OC(C)(C)C)CO > 100 µM (inactive)

# query: GI50 of entry Cn1c2cc([N+](=O)[O-])ccc2c(=O)c2c(O)cc3c(c21)C=CC(C)(C)O3 > 100 µM (inactive)

# query: GI50 of entry COc1ccc(/C(C#N)=C2/O/C(=N/N)C(c3ccc(OC)c(OC)c3)C2=O)cc1OC (centres undefined) > 100 µM (inactive)

* * *

tested on: NCI-H522; assay: NCI tumour cell line growth inhibition, 48 h
Calls of active or inactive are those of the source. Cut-off read from the data, not from the text of the source: active = GI50 up to about 1.1 µM and inactive = higher.
Bench note: report the call from active, inactive

Example cases with answers are listed next.
Compound	Group
C#CC1(O)CCC2[C@@H]3CCc4cc(Oc5nc(F)nc(-c6c7ccccc7cn6C)n5)ccc4C3CC[C@@]21C (stereo not given in full)	inactive
CCCCCCCSCC(O)COC(c1ccccc1)(c1ccccc1)c1ccccc1 (stereo not given)	inactive
NC1=Nc2ccccc2Sc2ccccc21	inactive

For COC(=O)/C=C/COCC1C2CCC(=O)C21 (stereo not given) , which call appears in the assay record? inactive

For Cc1nc(Nc2ccccc2)sc1C(=O)CC(=O)C(=O)NC12CC3CC(CC(C3)C1)C2 , which call appears in the assay record? inactive

For CC(=O)N[C@@H](Cc1ccc(O)cn1)C(=O)NCc1ccc2c(c1)OCO2 , which call appears in the assay record? inactive

* * *

test system: COLO 205; experiment: NCI tumour cell line growth inhibition, 48 h
Active and inactive are the calls of the source. Cut-off read from the data, not from the text of the source: active = GI50 up to about 1.1 µM and inactive = higher.
Bench note: report the call from 1 (yes) for active, 0 (no) for inactive

Example cases with answers are listed next.
Compound	Subject of test	Group
CS/C(=N/C(=O)c1ccccc1Cl)SCCS/C(=N\C(=O)c1ccccc1Cl)SC	COLO 205	0 (no)
Cc1nc(Nc2ccccc2)sc1C(=O)CC(=O)C(=O)NC12CC3CC(CC(C3)C1)C2	COLO 205	0 (no)
O=C(Nc1ccc(Sc2ccc(/N=N/c3c(O)c(S(=O)(=O)O)cc4cc(S(=O)(=O)O)ccc34)cc2)cc1)c1ccc(/N=N/c2c(O)c(S(=O)(=O)O)cc3cc(S(=O)(=O)O)ccc23)cc1	COLO 205	0 (no)
CC(C)C(C/C=C1/CC(CO)(COC(=O)c2ccccc2)OC1=O)C(C)C (centres undefined)	COLO 205	0 (no)
NC(=O)c1cc2cc(Cl)cc(Cl)c2o/c1=N\c1ccc(F)cc1	COLO 205	0 (no)
CN1CCN(C)C1c1cccc(C2N(C)CCN2C)c1	COLO 205	0 (no)
COc1ccc(N2C(=O)C3c4[nH]c5ccc(OC)cc5c4C4CCC(C(C)C)CC4C3C2=O)cc1 (centres undefined)	COLO 205	0 (no)
COCn1c(C)c(C)c2c(=O)oc(N(C)C)nc21	COLO 205	0 (no)

For CCc1ccccc1NC(=O)C(=O)C(C#N)c1ccccc1Cl (centres undefined) , which call appears in the assay record? 0 (no)

For COC(=O)Cc1c2n(c3ccccc13)C(=O)N1c3ccccc3C(CC(=O)OC)C21 (centres undefined) , which call appears in the assay record? 0 (no)

For Cc1c(/N=N/c2ccc([N+](=O)[O-])cc2)nc2scc(-c3ccccc3)n12 , which call appears in the assay record? 0 (no)

For C(=C\c1ccccc1)/Cn1nc(-c2ccccc2)nc1-c1cnccn1 , which call appears in the assay record? 0 (no)

For Cc1ccc(S(=O)(=O)NC(=O)NCCC(=O)O)cc1 , which call appears in the assay record? 0 (no)

For CN(C)c1n2c3cc([N+](=O)[O-])ccc3[n+]3c(N(C)C)n4ccccc4c3c2c2cccc[n+]12.[O-][Cl+3]([O-])([O-])[O-].[O-][Cl+3]([O-])([O-])[O-] , which call appears in the assay record? 0 (no)

For Cc1cn2cc(-c3ccncc3)nc2s1 , which call appears in the assay record? 0 (no)

All values here come from ChEMBL document CHEMBL1201862.
